Quick record: Ki, D(2) dopamine receptor (Homo sapiens).
// return numeric value only (unit: µM, not printed)

Examples from the recorded data:
CCc1cc(Cl)c(OC)c(C(=O)NC[C@@H]2C[C@@H](OCCCCNC(=O)c3cc4ccccc4[nH]3)CN2)c1O = 0.00254
CCc1cc(Cl)c(OC)c(C(=O)NC[C@@H]2CCCN2CCCc2ccccc2)c1O = 0.162
CCc1cc(Cl)c(OC)c(C(=O)NCC2CCN(CC)C2)c1O (centres undefined) = 0.0382

Now for another entry.
// map CCc1cc(Cl)c(OC)c(C(=O)NC[C@@H]2C[C@@H](OCCCCO)CN2)c1O to recorded Ki (system: D(2) dopamine receptor (Homo sapiens))
Sequence (P14416 whole entry): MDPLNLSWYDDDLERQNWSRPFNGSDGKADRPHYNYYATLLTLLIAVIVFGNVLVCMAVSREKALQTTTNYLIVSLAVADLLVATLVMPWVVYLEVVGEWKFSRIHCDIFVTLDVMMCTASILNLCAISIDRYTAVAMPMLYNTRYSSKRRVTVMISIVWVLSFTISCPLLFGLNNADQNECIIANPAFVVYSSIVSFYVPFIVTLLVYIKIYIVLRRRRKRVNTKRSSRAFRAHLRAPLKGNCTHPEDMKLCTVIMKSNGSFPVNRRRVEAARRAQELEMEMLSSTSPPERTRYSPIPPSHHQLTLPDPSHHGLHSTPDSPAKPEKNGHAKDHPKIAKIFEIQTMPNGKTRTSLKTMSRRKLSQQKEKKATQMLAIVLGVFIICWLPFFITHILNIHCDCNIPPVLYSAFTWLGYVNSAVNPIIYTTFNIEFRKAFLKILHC
0.0019

Source: ChEMBL document CHEMBL4825766
